Attribution: the nanobody polyreactivity screen of Harvey et al. (2022)

- method: yeast display, Sf9 membrane polyspecificity reagent, FACS + sequencing; frameworks hold sequencing errors
readout-name: polyreactivity (PSR sort gate)

Examples with their reported polyreactivity (PSR sort gate) follow.
QVQLVESGGGLVQAGGSIPLSCAASGIIFYYNTMGWYRQAPGKERELVATSTASDGSTYADSVKGRFTISSDNAKNTVYLQMNRLKPEDTAVYYCNADTRTQGPFSAPYYREMNYWGQGSQVTVSS : low polyreactivity
QVQLVESGGGLVQAGGSLRLSCAASGITFSTYAMGWYRQAPGKERELVAAINWSGGSTRYADSVKGRFTISRDNAKNTVYLQMNSLKPADTAVYYCAAEVQGQVGEFDYWGQGTQVTVSS : low polyreactivity
QVQLVESGGGLVQAGGSLRLSCAASGRTISVYGMGWYRQAPGKERELVASIPWRGGTTYYADSVKGRFTISRDNAKNTVYLQMNSLKPEDTAVYYCAIEPFRFRYYYWGQGTQVTVSS : high polyreactivity
QVKLVESGGGLVQAGGSLRLSCAASGSTYWQYSMGWYRHAPGKEREFVAAISSRGGSTYYADSVKGRFTISRDNAKNTVYLQMNSLKPEDTAVYYFAAKNYFAFIRTYRYVHRPTYYYWGQGTQVTVSS : high polyreactivity
QVQLVESGGGLVQAGGSLRLSCAASGSTFDGNAMGWYRQAPGKERELVAAISSSGGSTYYADSVKGRFTISRDNAKNTVYLQMNSLKPEDTAVYYCAAGGWSTLLSWFYRRYDYWGQGTQVTVSS : high polyreactivity

Which measured polyreactivity (PSR sort gate) value corresponds to `QVQLVESGGGLVQAGASHRLSCAASGSTFRYNSMGSYRQAPGKERELVAAISRGGSTNYADSVNGRFTISRDNANNTVYLQMISLKPEATAVYYCAASGTRQEYDYWGQGTQVTVSS` ? high polyreactivity

Which measured polyreactivity (PSR sort gate) value corresponds to `QVQLVESGGGLVQAGGSLRLSCAASGRTFRGYTMGWYRQAPGKERELVAAINWSGGRTYYADSVKGRFTISRDYAKNTVYLQMNSLKPEDTAVYDCNAVTQITGSSDGDYWGQGTQVNVSS` ? high polyreactivity

Which measured polyreactivity (PSR sort gate) value corresponds to `QVQLVESGSGLVQAGGSLRLSCAHSGFTVSYYVMGWYRQAPGKERELVAAISWSGGSTYYADSVKGRFTISLDNAKNTVYLQMNSLKPEDTAFYYCNADDWRDDYEYWGQGTQVTVSS` ? high polyreactivity

Which measured polyreactivity (PSR sort gate) value corresponds to `QVQLVESGGGLVQAGGSLRLSCAASGRIFKLYAMGWYRQAPGKERELVASITWGGGSTNYADSVKGRFTISRDNAKNTVYLQMNSLKPEDTAVYYCAAVYSKYAVFWEYDYWGQGTQVTVSS` ? low polyreactivity

Which measured polyreactivity (PSR sort gate) value corresponds to `QVQLVESGGGLVQAGGSLRLSCAASGIIFYDYAMGWYRQAPGKERELVAAISTDAGSTYYADSVKGRFTISRDNAKNTVYLQMNSLKPEDTAVYYCNADEHSYSVSWDYEYDYWGQGTQVTVSS` ? high polyreactivity

Which measured polyreactivity (PSR sort gate) value corresponds to `QVQLVESGGGLVQAGGSLRLSCAASGSIFRQNAMGWYRQAPGKERELVAAISWSGVRTYYADSVKGRFTISRDNAKNTVYLQMNSLKPEDTAVYYCATRYTHVYYGRISSSPKFDSWGQGTQVTVSS` ? low polyreactivity

----------
- method: yeast display, Sf9 membrane polyspecificity reagent, FACS + sequencing; frameworks hold sequencing errors
readout-name: polyreactivity (PSR sort gate)

QVQLVESGGGLVQAGGSLRLSCAASGFTFSYYVMGWYRQAAGKERELVAAINRGGSTNYADSVKRRFTISRDNAKNTVYLQMNSLKPEDTAVYYCAARFPGYGYWGQGTEVTVSS : high polyreactivity
QVQLVESGGGLVQAGGSLRLSCAASGSTFQYNVMGWYRQAPGKERELVAAISRSGTRTSYADSVKGRFTISRDYAKNTVYLQMNTLKPEDTAVYYCAAVVYHRYYSGYYYWGQGTQVTVST : high polyreactivity
QVQLVESGGGLVQAGGSLRLSCAASGSTFGPYAMGWYRQAPGKERELVATISGSRSSTYYADSVKGRFTISRDNAKNTVYLQMNSLKPEDTAVYYCATDLYFDLRYDYWGQGTQVTVSS : low polyreactivity
QVQLVESGGGLVQAGGSLRLSCASSGRTFVFYAMGWYRHAPGKERELVAAITSGTSTNYADSVKGRFTISRDNAKNTVYLQMISLKPEDTAVYYCAAYWTDVTYSIGFGYWGQGTQVTVSS : low polyreactivity
QVQLVESGGGLVQAGGSLRLSCAASGSTFGRYAMGWYRQAPGKERELVAAITTSGGRTRYADSVKGRFTISRDNAKNPVYLQMNSLKPEDTAVYYCAASGAQGPDYDYWGQGTQVTVSS : low polyreactivity
QVQLVESGGGLVQAGGSLRLSCAASGRTFSRNAKGWYRQAPGKERELVAAISWSGGSTYYADSVKGRFTISRDNAKNTVYLQMNSLKPEDTAVYYCAKVLGRTYNYWGQGTQVTVSS : high polyreactivity

Which measured polyreactivity (PSR sort gate) value corresponds to `QVQLVESGGGLVQAGGSLRISCAASGIIFSYYAMGWYRQAPGKERELVAAIRENGGSTYYADSVKGRFTISRDNAKNTVYLQMNSLKPEDTAVYYCAVDTTYYAGYEYDYWGQGTQVTVSS` ? low polyreactivity

Which measured polyreactivity (PSR sort gate) value corresponds to `QVQLVESGGGLVQAGGSLRLSCAASGSTFFYYAMVWYRQAPGKERELVAAISQSSASTYYADSVKGRFTISRDNAKNTVYLQMNSLKPEDTAVYYCAAARGYWWYDYWGQGTQVTVSS` ? high polyreactivity

----------
- method: yeast display, Sf9 membrane polyspecificity reagent, FACS + sequencing; frameworks hold sequencing errors
readout-name: polyreactivity (PSR sort gate)

Examples with their reported polyreactivity (PSR sort gate) follow.
QDQLVESGGGLVQAGGSLRLSFAASGSTFVRYAMVWYRQAPGKERELVAAISRSGGSTYYADSVKGRFTISRDNAKNTVYLQMNSLKPEDTAVYYCAARLVYSGRDRGYDYWGQGTQVTVSS : high polyreactivity
QVQLVESGGGLVQAGGSLRLSCAASGSIFGPYAMGWYRQAHGKERELVAAITISGGSTYYADSVKRRFTISRDNAKNTVYLQINSLKPEDTAVYYCAADYWVDYEYDYYWEYNYWGQGSQVTVSS : high polyreactivity
QVQLVESGGGLVQAGVSLRLSCAASGTIFYTYTMGWYRQAPRKERELVATIRSTGSTDYADSVKGRFTISRDNAMNTVYLQMNSLKREDTAVYYCNADRFGDYDYWGQGTQVTVSS : low polyreactivity
QVQLVESGGRLVQAGGSLRLSCAASGSTIYPNAMGWYRPAPGTERELVAGITTIGGSTYYADSVKGRFTISRDNAKNTVYLQMNSLKPEDTAVYYCAARWTFSTWIGFDYWGQGTQVTVSS : low polyreactivity

Now for a further sequence.
Which measured polyreactivity (PSR sort gate) value corresponds to `QVQQQESGGGLVQAGGSLRRSCAASGSIFSHWAMGWYRQTPGKERELVASITAGGNNNYADSVKGRFTISRDNAKNTVYLPMNSLKPEDTAVYYCNRRYPGPDSFEHYYYYRYDYWGQGTQVTVSS` ? low polyreactivity

----------
- method: yeast display, Sf9 membrane polyspecificity reagent, FACS + sequencing; frameworks hold sequencing errors
readout-name: polyreactivity (PSR sort gate)

Examples with their reported polyreactivity (PSR sort gate) follow.
QVQLVESGGGLVQAGGSLRLSCAASGRIFYPYAMGWYRQAPGKERELVAAISSSGGSTYYADSVKGRFTISRDNAKNTVYLQMNSLKPEDTAVYYCNKYSYTYQNPYDSWGQGTQVTVSS : high polyreactivity
QVQLQEGGGGLVQAGGSLRLSCAASGYIFNGDWMGWYRQAPGKERELVATINYGATTNYADSVKGRFTISRDNAKNTVYLQMNSLKPEDTAVYYCAVGGHGAQLYVYWGQGTQVTVSN : high polyreactivity
QVQLVESGGGLVQAGGSLRLSCAASGRTFTLYAMGWYRQAPGKERELVASITTGGRTYYADSVKGRFTISRDNAKNTVYLKMNSLKPEDTAVYYCNADRVYAWYRTYEYWGQGTEVTVSS : high polyreactivity
QVQLVESGGGLVQAGGSLRLSCAASGRTFGTNAMGWYRQAPGKERELVAAINQNGGSTYYADSVKGRFTISRDNAKNTVYLQMNSLKPEDTAVYYCAARSLDRYYHNANYYPYYYWGQGTQVTVSS : high polyreactivity
QVQLVESGGGLVQAGRSHRLSCAASGIIFYKYAMGWYRQAPVKERELVAAISGTGGSTYYADSVKGRFTISRDNAKNTVYLQMNSVTAEDPAVYYCAATHYSFSWGYDYWGQGTQGTVSS : high polyreactivity
QDQLEETGGGLVHAGGSLRLSCAASGRTFVVYDMGWYRQAPGKERELVAGIRWRGGSTYYADSVKGRFTISRDNAKNSVYLQMNSLKPVDTAVYYCAADVYLVKYDYWGQGTQVTVSS : low polyreactivity
QVQLVESGGGLVQAGGSLRLSCAASGITSQTYAMGWYRQAPGKERELVAGISASGGRTFYADSVKGRFTFSRDHAKNTVYLQMNSLKPEDTAVYYCNKLSSDSYNYWGQGTQVTVSS : high polyreactivity
QVQLVESGGGLVQAGGSLRLSCAASGSTFDVYAMGWYRQAPGKERELVASISITDGSTYYADSVKGRFTISRDNAKNTVYLPMNSLKPEDTAVYYCNAQYGGSYVEYDYWGQGTQVTVSA : low polyreactivity
HVPLVESGGGLVQAGGSLRLSCAASGSIFVWYVMGWYRQAPGKEWELVAAITWSAARTYYADSVKGRFTISRDNAKITVYLQMNSLKPEDTAVYYGAADPVSYQPSSRIFDYWGQATQVTVSS : low polyreactivity
QVQLVDSGGGLVQAGGSLRLSCAASGFTIKYYAMVWYRQAPGKERELVATITSGARTNYADSVKGRFTISRDNAKNTVYLQMNSLKPEDTAVYYCATPYSAYWQNERDYWGQGTQVTVSS : high polyreactivity

Now for a further sequence.
Which measured polyreactivity (PSR sort gate) value corresponds to `QVQLVESGGGLVQAGGSLRLSCAASGRIFGWYAMGWSRQAPGKERELGAAITTADSTYYADSVKGRFTISRDNAKNTVYLQMNSLKPEDTAVYYCAADAYWEYDYWGQGTQVTVSS` ? low polyreactivity
